Read-out record for ENPP1 (hENPP1-ECD-His) (Homo sapiens (Human)): IC50
result type: IC50 (nM)

[[record]]
compound = "COc1ccc2c(Oc3ccc4c(c3)CCCC4(C)C(=O)NO)ccnc2n1 (stereo not shown) [Compound 203]"
result_type = "IC50"
data_value = 1.8

[[record]]
compound = "COc1ccc2c(Oc3ccc(CC(=O)NO)cc3F)ccnc2n1 [Compound 26]"
result_type = "IC50"
data_value = 1.3

[[record]]
compound = "COc1ccc2c(Cc3ccc(C4(C(=O)NO)CCCC4)cc3)ccnc2n1 [Compound 141]"
result_type = "IC50"
data_value = 1.4

[[record]]
compound = "COc1cc2nccc(Nc3ccc(C(CC(C)C)C(=O)NO)cc3)c2cn1 (stereo not shown) [Compound 179]"
result_type = "IC50"
data_value = 1

[[record]]
compound = "COc1ccc2c(Oc3ccc(CC(=O)NO)cc3)c(C#N)cnc2c1 [Compound 14]"
result_type = "IC50"
data_value = 1.2

[[record]]
compound = "CCn1ncc2c(Oc3ccc(C(C)C(=O)NO)cc3)ccnc21 (stereo not shown) [Compound 73]"
result_type = "IC50"
data_value = 8.6

[[record]]
compound = "COc1ccc2c(Nc3ccc(C(C(=O)NO)C(C)C)cc3)ccnc2n1 (stereo not shown) [Compound 161]"
result_type = "IC50"
data_value = 16

[[record]]
compound = "COc1cc2nccc(Oc3ccc(CC(=O)NO)cc3)c2cc1F [Compound 13]"
result_type = "IC50"
data_value = 1.37

[[record]]
compound = "CC(C(=O)NO)c1ccc(Oc2ccnc3c2cnn3C)cc1 (stereo not shown) [Compound 36]"
result_type = "IC50"
data_value = 24

[[record]]
compound = "COc1ccc2c(N3CCc4cc(CC(=O)NO)ccc43)ccnc2n1 [Compound 204]"
result_type = "IC50"
data_value = 24

[[record]]
compound = "COc1ccc2c(Oc3cc(F)c(C4(C(=O)NO)CCOCC4)cc3F)ccnc2n1 [Compound 134]"
result_type = "IC50"
data_value = 3.3

[[record]]
compound = "COc1ccc2c(Nc3ccc(CC(=O)NO)cc3)nc(Cl)nc2c1 [Compound 22]"
result_type = "IC50"
data_value = 1.8

[[record]]
compound = "COc1ccc2c(Oc3ccc(C(O)C(=O)NO)cc3)ccnc2n1 (stereo not shown) [Compound 38]"
result_type = "IC50"
data_value = 4.4

[[record]]
compound = "Cc1cc(Oc2ccc(C(C)(C)C(=O)NO)cc2)c2cnn(C)c2n1 [Compound 58]"
result_type = "IC50"
data_value = 41

[[record]]
compound = "COc1ccc2c(Nc3ccc4c(c3)OCC4C(=O)NO)ccnc2n1 (stereo not shown) [Compound 59]"
result_type = "IC50"
data_value = 1.8

[[record]]
compound = "COc1ccc2c(Nc3c(F)cc(C(C)C(=O)NO)cc3F)ccnc2n1 (stereo not shown) [Compound 62]"
result_type = "IC50"
data_value = 1.6

[[record]]
compound = "O=C(Cc1ccc(Nc2ncnc3nc(O)ccc23)cc1)NO [Compound 31]"
result_type = "IC50"
data_value = 20

[[record]]
compound = "CCn1nc(C)c2c(Nc3ccc(C(C)(C)C(=O)NO)cc3)ncnc21 [Compound 83]"
result_type = "IC50"
data_value = 4.4

[[record]]
compound = "COc1ccc2nccc(Oc3ccc(C(C)(C)C(=O)NO)cc3)c2c1 [Compound 99]"
result_type = "IC50"
data_value = 63


====

IC50 reference
- assay target: ENPP1 (hENPP1-ECD-His) (Homo sapiens (Human), UniProt P22413)
- Sequence (P22413 98-925): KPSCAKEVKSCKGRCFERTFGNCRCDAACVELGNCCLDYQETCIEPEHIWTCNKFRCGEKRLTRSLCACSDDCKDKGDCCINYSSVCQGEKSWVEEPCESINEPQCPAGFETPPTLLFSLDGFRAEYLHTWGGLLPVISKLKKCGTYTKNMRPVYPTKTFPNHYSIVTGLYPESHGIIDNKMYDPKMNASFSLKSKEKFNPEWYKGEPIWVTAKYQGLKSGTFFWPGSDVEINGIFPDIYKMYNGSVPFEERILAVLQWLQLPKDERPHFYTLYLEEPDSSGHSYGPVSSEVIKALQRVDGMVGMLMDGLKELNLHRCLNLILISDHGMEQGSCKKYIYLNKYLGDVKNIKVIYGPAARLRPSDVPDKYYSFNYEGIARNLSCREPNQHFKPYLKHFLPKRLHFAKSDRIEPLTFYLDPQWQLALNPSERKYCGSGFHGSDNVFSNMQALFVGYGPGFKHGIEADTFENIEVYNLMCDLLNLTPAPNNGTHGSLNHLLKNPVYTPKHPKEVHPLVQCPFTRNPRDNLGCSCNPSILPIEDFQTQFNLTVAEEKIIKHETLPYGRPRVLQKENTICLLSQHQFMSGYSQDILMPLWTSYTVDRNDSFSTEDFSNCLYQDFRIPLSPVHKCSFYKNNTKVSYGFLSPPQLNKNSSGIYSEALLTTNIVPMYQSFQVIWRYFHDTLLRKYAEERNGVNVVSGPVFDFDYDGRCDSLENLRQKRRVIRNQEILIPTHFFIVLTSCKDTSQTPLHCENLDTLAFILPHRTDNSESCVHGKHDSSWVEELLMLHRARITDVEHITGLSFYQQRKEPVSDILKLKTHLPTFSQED
result type: IC50 (nM)

[[record]]
molecule = "Cn1ncc2c(Nc3ccc(C(C)(C)C(=O)NO)cc3)ccnc21 [Compound 81]"
assay_target = "ENPP1 (hENPP1-ECD-His) (Homo sapiens (Human), UniProt P22413)"
data_value = 1.9

[[record]]
molecule = "COc1ccc2c(Oc3ccc(C(C)C(=O)NO)cc3)ccnc2n1 (centres unmarked) [Compound 27]"
assay_target = "ENPP1 (hENPP1-ECD-His) (Homo sapiens (Human), UniProt P22413)"
data_value = 2.1

[[record]]
molecule = "COc1ccc2c(Nc3ccc(C(CC(C)C)C(=O)NO)cc3)ccnc2n1 (centres unmarked) [Compound 182]"
assay_target = "ENPP1 (hENPP1-ECD-His) (Homo sapiens (Human), UniProt P22413)"
data_value = 1.7

[[record]]
molecule = "COc1ccc2c(Nc3ccc(CC(=O)NO)cc3)nc(C)nc2n1 [Compound 37]"
assay_target = "ENPP1 (hENPP1-ECD-His) (Homo sapiens (Human), UniProt P22413)"
data_value = 2.4

[[record]]
molecule = "COc1ccc2c(Oc3ccc([C@@H](C(=O)NO)C4CCOCC4)c(F)c3)ccnc2n1 [Compound 198]"
assay_target = "ENPP1 (hENPP1-ECD-His) (Homo sapiens (Human), UniProt P22413)"
data_value = 61


====

- assay: Preliminary pharmacokinetic testing in ICR mice (gavage 5 mg/kg, intravenous 1 mg/kg)
- Assay type: in vivo
- protocol conditions: male, mouse, oral administration (5 mg/kg), plasma
AUC(0-t) reference
result type: AUC(0-t) (ng·h/mL)

[[record]]
test_smiles = "COc1ccc2c(Oc3ccc(CC(=O)NO)cc3)ccnc2n1"
data_value = 619

[[record]]
test_smiles = "Cn1ncc2c(Nc3ccc(C(C)(C)C(=O)NO)cc3)ncnc21"
data_value = 161

[[record]]
test_smiles = "COc1ccc2c(Oc3ccc(C(C)(C)C(=O)NO)cc3)ccnc2n1"
data_value = 887

[[record]]
test_smiles = "COc1ccc2c(Oc3ccc(C4(C(=O)NO)CCOCC4)cc3)ccnc2n1"
data_value = 463

[[record]]
test_smiles = "COc1ccc2c(Oc3ccc(C(C)(C)C(=O)NO)c(F)c3)ccnc2n1"
data_value = 1590


====

Read-out record for ENPP1 (hENPP1-ECD-His) (Homo sapiens (Human), UniProt P22413): log10 of IC50
result type: log10 of IC50 (log10 of the value in nM)

[[record]]
compound = "COc1ccc2c(Nc3cc(F)c(CC(=O)NO)cc3F)ccnc2n1 [Compound 52]"
result_type = "log10 of IC50"
data_value = 0.34

[[record]]
compound = "COc1cnc2c(Oc3ccc(CC(=O)NO)cc3)ccnc2c1 [Compound 20]"
result_type = "log10 of IC50"
data_value = 2.51

[[record]]
compound = "COc1ccc2c(Nc3cnn(CC(=O)NO)c3)ccnc2n1 [Compound 90]"
result_type = "log10 of IC50"
data_value = 0.65

[[record]]
compound = "COc1cc2ncnc(Nc3ccc(C(CC(C)C)C(=O)NO)cc3)c2cn1 (stereo not drawn) [Compound 188]"
result_type = "log10 of IC50"
data_value = 0.66

[[record]]
compound = "CCn1ncc2c(Nc3ccc(CC(=O)NO)c(F)c3)ccnc21 [Compound 193]"
result_type = "log10 of IC50"
data_value = 0.34

[[record]]
compound = "COc1ccc2c(Nc3ccc(C(C)(C)C(=O)NO)cn3)ccnc2n1 [Compound 101]"
result_type = "log10 of IC50"
data_value = 0.04

[[record]]
compound = "COc1ccc2c(Oc3ccc4c(C(=O)NO)cccc4c3)ccnc2n1 [Compound 92]"
result_type = "log10 of IC50"
data_value = 2.23

[[record]]
compound = "COc1cc2nccc(Nc3c(F)cc(C(CC(C)C)C(=O)NO)cc3F)c2cn1 (stereo not drawn) [Compound 184]"
result_type = "log10 of IC50"
data_value = 0.34

[[record]]
compound = "CCC(CC)(C(=O)NO)c1ccc(Oc2ccnc3nc(OC)ccc23)cc1 [Compound 124]"
result_type = "log10 of IC50"
data_value = 0.20


====

- assay target: ENPP1 (hENPP1-ECD-His) (Homo sapiens (Human), UniProt P22413)
Threshold 4 nM: IC50 strictly smaller gives 1 (yes), otherwise 0 (no).

[[record]]
compound = "COc1ccc2c(Oc3ccc(C(CC(C)C)C(=O)NO)cc3)ccnc2n1 (stereo not drawn) [Compound 132]"
classification = "0 (no)"

[[record]]
compound = "Cn1c(=O)ccc2c(Nc3ccc(CC(=O)NO)cc3)ccnc21 [Compound 18]"
classification = "0 (no)"

[[record]]
compound = "COc1ccc2c(Nc3ccc(C(C)(C)C(=O)NO)cc3)cnnc2c1 [Compound 147]"
classification = "1 (yes)"

[[record]]
compound = "COc1ccc2c(Oc3ccc(N4CCC[C@H]4C(=O)NO)cc3)ccnc2n1 [Compound 196]"
classification = "0 (no)"

[[record]]
compound = "COc1ccc2c(Nc3cc(F)c(CC(=O)NO)c(F)c3)ccnc2n1 [Compound 70]"
classification = "1 (yes)"

[[record]]
compound = "COc1ccc2c(Oc3ccc(C4(C(=O)NO)CCOCC4)cc3F)ccnc2n1 [Compound 136]"
classification = "0 (no)"

[[record]]
compound = "COc1cc2nccc(Nc3cc(F)c(C(CC(C)C)C(=O)NO)c(F)c3)c2cn1 (stereo not drawn) [Compound 186]"
classification = "1 (yes)"

[[record]]
compound = "COc1ccc2c(Oc3ccc([C@H](C(=O)NO)C4CCOCC4)c(F)c3)ccnc2n1 [Compound 206]"
classification = "0 (no)"

[[record]]
compound = "COc1ccc2c(NC3CCC(CC(=O)NO)C3)ccnc2n1 (stereo not drawn) [Compound 142]"
classification = "0 (no)"

